Data origin, for the record: patent US7074789B2

Reported IC50 values are given for each entry in this list.
# assay target: AKT (Homo sapiens)
# Construct: Kinases are expressed as either kinase domains or full length constructs; made in house
# Sequence (Q9Y243 whole entry, the tested form may be a part): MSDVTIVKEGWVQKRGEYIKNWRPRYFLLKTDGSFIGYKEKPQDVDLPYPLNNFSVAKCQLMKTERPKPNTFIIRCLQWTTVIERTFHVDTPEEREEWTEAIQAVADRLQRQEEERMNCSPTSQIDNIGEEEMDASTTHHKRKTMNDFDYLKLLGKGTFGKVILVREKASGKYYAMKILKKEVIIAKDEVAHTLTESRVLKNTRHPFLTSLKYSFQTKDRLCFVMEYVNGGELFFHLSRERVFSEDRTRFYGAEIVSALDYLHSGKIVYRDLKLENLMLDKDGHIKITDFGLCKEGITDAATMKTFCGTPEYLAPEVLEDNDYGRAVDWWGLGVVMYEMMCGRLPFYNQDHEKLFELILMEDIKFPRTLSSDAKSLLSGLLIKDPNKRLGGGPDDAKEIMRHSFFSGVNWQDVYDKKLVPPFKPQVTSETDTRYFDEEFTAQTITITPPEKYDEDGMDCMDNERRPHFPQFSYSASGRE
# assay summary: Kinase inhibition assay (33P transfer), AKT
# Assay type: biochemical
# recorded conditions: Table 2, kinase inhibition class; read-out: AKT3-1
# Excerpt: The inhibitor compounds described herein are screened in the following manner. […] Kinases are expressed as either kinase domains or full length constructs fused to glutathione S-transferase (GST) or polyHistidine tagged fusion proteins in either E. colior Baculovirus-High Five expression systems. […]

molecule smiles	meas value
Oc1cccc(Nc2ncnc(Nc3ccc(OCc4ccccc4)cc3)n2)c1	1.04 to 6.23 µM
COCCOc1ccc(Nc2ncnc(Nc3ccc(C)c(F)c3)n2)cc1OCCOC	> 10.1 µM
CN(c1cccc(Cl)c1)c1ncnc(Nc2ncccn2)n1	> 14.3 µM
O=c1[nH]c2ccccc2n1-c1ncnc(Nc2cnc3ccccc3c2)n1	> 12.7 µM

Query: I would be grateful if you could share the reported IC50 for Nc1nc2ccccc2n1-c1ncnc(Nc2ccc(S(N)(=O)=O)cc2)n1 .
Result: > 11.8 µM

Query: Reported IC50 for COc1cc(Nc2ncnc(-c3ccc(N4CCNCC4)nc3)n2)cc(OC)c1OC : what is it?
Result: > 10.6 µM

Query: Param item = NC(=O)c1ccc(Nc2ncnc(-c3ccccc3)n2)cc1 ; retrieve measured IC50.
Result: > 15.4 µM

Query: Value lookup for IC50; key = c1ccc(Cn2ncc3cc(Nc4ncnc(Nc5ccc(N6CCOCC6)cc5)n4)ccc32)cc1
Result: 7.31 to 9.4 µM

Query: // query IC50 value for entry COc1cc(Nc2ncnc(Nc3cccc(Br)c3)n2)cc(OC)c1OC
Result: 8.1 to 10.4 µM
